Values from patent US20120196858A1

Experiment: Pharmacokinetic (PK) evaluation in mice
Format: in vivo, Balb/c mice
Details: 30 mg/kg i.p., mice
assayReadout: Cmax (µM)
Give the value, in units of µM, as a plain number.

Note Cmax for the compound shown: CNC(=O)c1ccccc1Nc1cc(Nc2ccc(N3CCOCC3)cc2OC)ncc1C(F)(F)F
34.8

* * *

Assay: Pharmacodynamic (PD) evaluation in subcutaneous 4T1 tumors, single i.p. injection
Assay type: in vivo, Balb/c mice
Conditions: Balb/c, mouse, plasma, intraperitoneal; 100 mg/kg i.p., 12 h; read-out: average concentration in plasma at 12 h
assayReadout: concentration at 12 h (µM)
Give just the numeric value; µM need not be written.

Using known records, supply concentration at 12 h for CNC(=O)c1ccccc1Nc1cc(Nc2ccc(N3CCOCC3)cc2OC)ncc1C(F)(F)F
15.1
